Source: ChEMBL document CHEMBL1123048

Measured target: Adenosine receptor A1 (Rattus norvegicus)
Sequence (P25099 whole entry): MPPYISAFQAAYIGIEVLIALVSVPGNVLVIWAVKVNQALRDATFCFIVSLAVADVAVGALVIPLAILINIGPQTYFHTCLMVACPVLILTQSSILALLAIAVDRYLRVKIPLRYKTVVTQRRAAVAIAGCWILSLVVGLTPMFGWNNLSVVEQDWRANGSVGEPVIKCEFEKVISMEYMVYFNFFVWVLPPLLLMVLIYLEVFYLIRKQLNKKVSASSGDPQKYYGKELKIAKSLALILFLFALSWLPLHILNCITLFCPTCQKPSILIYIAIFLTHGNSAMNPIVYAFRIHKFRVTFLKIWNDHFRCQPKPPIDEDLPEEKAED
Test details: Binding affinity towards adenosine A1 receptor in rat cerebral cortical membranes with 1 nM [3H]cyclohexyladenosine
Assay type: cell membranes
Value kind: Ki (nM)
Write the value in nM as a bare number.

Item `CCCn1c(=O)c2[nH]c(-c3ccc(OCC(N)=O)cc3)nc2n(CCC)c1=O` was tested on Adenosine receptor A1 (Rattus norvegicus); the reported Ki is 6

---

Parameter 'readout' = Ki; parameter 'system' = Adenosine A2 receptor (Cavia porcellus).
Write the value in nM as a bare number.

Recorded results for 6 compounds are shown here.
1. CCCn1c(=O)c2nc(-c3ccc(OCC(=O)OCC)cc3)[nH]c2n(CCC)c1=O    30
2. CC(=O)O.CCCn1c(=O)c2nc(-c3ccc(OCC(=O)NCCN(CC)Cc4ccc(O)cc4)cc3)[nH]c2n(CCC)c1=O    320
3. CCCn1c(=O)c2nc(-c3ccc(OCC(=O)Nc4ccc(O)cc4)cc3)[nH]c2n(CCC)c1=O    62
4. Cn1c(=O)c2nc(-c3ccc(OCC(=O)O)cc3)[nH]c2n(C)c1=O    430
5. CCCn1c(=O)c2nc(-c3ccc(OCC(=O)NCCCCCCCCN)cc3)[nH]c2n(CCC)c1=O    470
6. CCCn1c(=O)c2nc(-c3ccc(OCC(=O)Nc4ccc(C)cc4)cc3)[nH]c2n(CCC)c1=O    750

Moving on to another compound below.
Measured Ki, `CCCn1c(=O)c2nc(-c3ccc(OCC(=O)ON4C(=O)CCC4=O)cc3)[nH]c2n(CCC)c1=O` : 40
